Target: Mast/stem cell growth factor receptor Kit (Homo sapiens)
Sequence (P10721 whole entry, the tested form may be a part): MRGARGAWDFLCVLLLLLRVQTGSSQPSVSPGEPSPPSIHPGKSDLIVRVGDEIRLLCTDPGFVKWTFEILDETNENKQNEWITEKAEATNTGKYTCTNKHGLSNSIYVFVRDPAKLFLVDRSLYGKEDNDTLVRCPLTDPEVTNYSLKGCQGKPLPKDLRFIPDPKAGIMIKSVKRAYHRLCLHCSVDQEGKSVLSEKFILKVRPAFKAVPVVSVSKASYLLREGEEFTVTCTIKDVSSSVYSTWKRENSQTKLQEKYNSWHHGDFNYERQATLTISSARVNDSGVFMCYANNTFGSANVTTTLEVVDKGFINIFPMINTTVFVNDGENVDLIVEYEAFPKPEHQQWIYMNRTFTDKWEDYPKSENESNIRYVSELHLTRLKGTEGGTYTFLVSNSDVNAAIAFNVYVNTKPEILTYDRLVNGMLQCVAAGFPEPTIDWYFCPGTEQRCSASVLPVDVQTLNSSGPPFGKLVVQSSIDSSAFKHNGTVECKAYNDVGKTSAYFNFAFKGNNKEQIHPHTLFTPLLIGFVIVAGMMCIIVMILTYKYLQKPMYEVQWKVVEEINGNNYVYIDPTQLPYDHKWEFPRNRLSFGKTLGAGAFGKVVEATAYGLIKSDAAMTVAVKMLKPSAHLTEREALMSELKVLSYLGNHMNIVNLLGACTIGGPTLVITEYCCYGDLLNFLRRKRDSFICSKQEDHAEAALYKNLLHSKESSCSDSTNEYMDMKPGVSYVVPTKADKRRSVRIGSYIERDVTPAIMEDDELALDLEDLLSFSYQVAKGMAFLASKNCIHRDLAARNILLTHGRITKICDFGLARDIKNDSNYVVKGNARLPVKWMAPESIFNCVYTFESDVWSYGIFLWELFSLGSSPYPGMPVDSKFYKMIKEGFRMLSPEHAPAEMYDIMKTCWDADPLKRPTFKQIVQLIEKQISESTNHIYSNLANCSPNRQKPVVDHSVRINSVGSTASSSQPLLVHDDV
Assay: Inhibition of human recombinant His-tagged c-Kit cytoplasmic domain (544 to 976 residues) expressed in baculovirus expression system using Ser/Thr 6 peptide as substrate after 1 hr in presence of 300 uM ATP by FRET based Z'-LYTE assay
attribute measured: IC50

Worked set:
| smi | IC50 |
| --- | --- |
| CCc1ccc(C(=O)Nc2cc(CN3CCN(C)CC3)cc(C(F)(F)F)c2)cc1-c1cccc(-c2cnc3cnccn23)c1 | 0.62 µM |
| CCc1ccc(C(=O)Nc2ccc(F)c(C(F)(F)F)c2)cc1-c1cc(C)cc(-c2cnc3cnccn23)c1 | > 10 µM |
| CCc1ccc(C(=O)Nc2cccc(C(F)(F)F)c2)cc1-c1ccc(C)c(-c2cnc3cnccn23)c1 | > 10 µM |
| CC(C)c1ccc(C(=O)Nc2cccc(C(F)(F)F)c2)cc1-c1cccc(-c2cnc3cnccn23)c1 | 1.69 µM |
| CCc1ccc(C(=O)Nc2ccc(C(F)(F)F)cc2)cc1-c1cccc(-c2cnc3cnccn23)c1 | 3.98 µM |
| CCc1ccc(C(=O)Nc2cc(CN3CCN(C)CC3)cc(C(F)(F)F)c2)cc1-c1cccc(-c2cnc3ccnn3c2)c1 | > 10 µM |
| CCc1cc(-c2cc(C(=O)Nc3cccc(C(F)(F)F)c3)ccc2CC)cc(-c2cnc3cnccn23)c1 | > 10 µM |

Proceeding to the next compound to report its IC50.
# IC50 (compound: CCc1ccc(C(=O)Nc2cc(C(F)(F)F)ccc2F)cc1-c1cc(C)cc(-c2cnc3cnccn23)c1 ) is > 10 µM
